Counter-ions that a name gives are not always drawn.
Readout: melting point

Example results:
[[record]]
compound = "C[C@H](N)Cn1ncc2ccc3c(c21)O[C@H](CO)CO3.Cl [Example 2]"
readout = "melting point"
result_value = "112 to 116 °C"

[[record]]
compound = "CCS(=O)(=O)NC[C@H]1COc2ccc3cnn(C[C@H](C)N)c3c2O1.Cl [Example 5]"
readout = "melting point"
result_value = "243 to 244 °C"

[[record]]
compound = "C[C@H](N)Cn1ncc2ccc3c(c21)O[C@@H](CNS(C)(=O)=O)CO3.Cl [Example 4]"
readout = "melting point"
result_value = "235 to 236 °C"

[[record]]
compound = "C[C@H](N)Cn1ncc2ccc3c(c21)O[C@@H](CO)CO3 (as salt: hydrochloride) [Example 1]"
readout = "melting point"
result_value = "202 to 203 °C"


# melting point (compound: COC(=O)NC[C@H]1COc2ccc3cnn(C[C@H](C)N)c3c2O1.Cl [Example 7] ) is 265 to 266 °C
